Here the recorded relative % inhibition is given for each entry.
- System: P. falciparum NF54-pfs16-GFP late (IV-V) stage gametocytes
- assay-method-text: relative % inhibition of viable gametocyte number; higher = more gametocytocidal
- condition-set: 0.5 µM; stage: late (IV-V) gametocyte; incubation 72 h
Respond numerically; units are % and should not be typed.

compound	system	result-number
Cc1cc(Nc2ccc(Cl)cc2)n2nc(C(F)(F)F)nc2n1	P. falciparum NF54-pfs16-GFP late (IV-V) stage gametocytes	7.36
CCOc1ccc(-c2nc(NC(=O)c3cccc(S(C)(=O)=O)c3)sc2C)cc1	P. falciparum NF54-pfs16-GFP late (IV-V) stage gametocytes	4.66
COc1cc(OC)cc(N2C(=O)N(Cc3ccc(C(C)(C)C)cc3)c3ccccc3S2(=O)=O)c1	P. falciparum NF54-pfs16-GFP late (IV-V) stage gametocytes	4.34
Nc1ccc(-c2nc3cc(Cc4ccc5[nH]c(-c6ccc(N)cc6)nc5c4)ccc3[nH]2)cc1	P. falciparum NF54-pfs16-GFP late (IV-V) stage gametocytes	14.6
COc1ccc(CCN2C(=O)c3[nH]nc(-c4cc(Cl)c(C)cc4O)c3C2c2ccccc2F)cc1 (stereo not drawn)	P. falciparum NF54-pfs16-GFP late (IV-V) stage gametocytes	30.2

Record `CC1CCN(Cc2ccc(NC(=O)c3cc4ccc5cccnc5c4[nH]3)cc2)CC1` . Reported relative % inhibition: 0.926

Lookup result for `CN(C)CCCNCc1ccc(-c2ccc(F)c(Cl)c2)o1` ; measured relative % inhibition: 7.27

Sure, the documented relative % inhibition for `COc1cccc(NC(=O)[C@H](C(C)C)n2c(=O)[nH]c3ccccc3c2=O)c1` is 35

Memo: `COc1ccc(-c2nonc2NC(=O)c2cccc(C)c2)cc1OC` , reported relative % inhibition: -13.4

According to the records, this compound `CCOc1cccc2sc(N(Cc3cccnc3)C(=O)C3CCCCC3)nc12` displays relative % inhibition of -9.86

So, `CCCCOc1ccc(C(=O)Nc2cc(C)on2)cc1` ? Its relative % inhibition was -7.15

Lab book: relative % inhibition of `CCCCN(CCCC)S(=O)(=O)c1ccc(NC(=O)c2ccco2)cc1` noted as 7.52

The recorded relative % inhibition for `CC(=O)NCCc1nc2ccccc2n1Cc1ccc(C(C)C)cc1` is -8.38

// Oc1ccccc1CN1CCC2(CCCN(Cc3ccccc3F)C2)C1 (stereo not drawn) : relative % inhibition value = 34.9

So, Cc1cc(NC(=O)C2c3ccccc3C(=O)N(CC(C)C)C2c2cccs2)no1 (stereo not drawn) ? Its relative % inhibition was 31.5

Notebook: `Cc1ccc(OCCCCCCNCCO)c(C)c1` , relative % inhibition read as -16.2

Record `Oc1ccc2ccccc2c1CNc1nc2ccccc2[nH]1` , field relative % inhibition: 6.29

The value of relative % inhibition measured for the compound `Cc1ccc(NC(=O)Nc2cccc(Cl)c2)cc1F` turned out to be -16

In plain terms, `CCN(CC)CCNc1ccnc2cc3ccccc3cc12` has a documented relative % inhibition of 25.4

Reported relative % inhibition ( `O=C(Nc1ccc(Cl)c(Cl)c1)Nc1ccc(Cl)c(Cl)c1` ) = 17.5

* * *

- Test system: P. falciparum NF54-pfs16-GFP late (IV-V) stage gametocytes
- assay-method-text: relative % inhibition of viable gametocyte number; higher = more gametocytocidal
- condition-set: 0.5 µM; stage: late (IV-V) gametocyte; incubation 72 h
endpoint-label: relative % inhibition (%)
State the answer as a number, implicitly in %.

compound	relative % inhibition, %
CCCN(CCC)CC(O)COc1ccccc1C(=O)Nc1ccccc1 (stereo unspecified)	34.9
COc1cccc(C(=O)Nc2ccc(-c3nc4ccccc4[nH]3)cc2)c1	20
CC1CN(C(=O)c2sc3ccccc3c2Cl)CC(C)O1 (stereo unspecified)	6.08
Cc1cc(Nc2ccc3ccccc3c2)n2ncnc2n1	1.55
O=C(Nc1ccc(N2CCN(Cc3ccccc3)CC2)cc1)c1cccs1	6.6
CCN(Cc1ccccc1)C1CCN(Cc2cc(Br)ccc2O)CC1	35.1
Cc1cc(N2CCCC2)nc(Nc2ccc(NC(=O)CCc3ccccc3)cc2)n1	6.75
COc1cc2cc(C(=O)Nc3ccccc3)c(N)nc2cc1OC	3.1

Entry under test: `CC(C)OCc1cc(CN2CCN(c3cccc(Cl)c3)CC2)c(O)c2ncccc12` . Its relative % inhibition was 8.7

relative % inhibition reported for this compound `COc1ccc(CCN2CCC(CN(C)Cc3cnn(-c4ccccc4)c3)CC2)cc1` : 11.3

So, `CNCCCNc1ccnc2cc(Cl)ccc12` ? Its relative % inhibition was 26.6
